experiment: Metabolic stability in human liver microsomes; type: ADME, Microsome; details: read-out: Stability
PROPERTY MEASURED: microsomal CLint (µL/min/mg)

STRUCTURE SMILES STRING | U | LIMIT SIGN | MEASURED NUMBER
CC(C)(C)c1cc(NC(=O)NCc2ccccc2Sc2ccc3nnc(-c4ccccc4OCCO)n3c2)n(-c2ccc(Cl)c(O)c2)n1 | µL/min/mg | = | 232
CC(C)c1nnc2ccc(Sc3ccccc3CNC(=O)Nc3cc(C(C)(C)C)nn3-c3ccc(O)c(Cl)c3)cn12 | µL/min/mg | > | 287
CC(C)(C)c1cc(NC(=O)NCc2ccccc2Sc2ccc3nnc(-c4ccccc4OCCO)n3c2)n(-c2ccc(O)c(Cl)c2)n1 | µL/min/mg | = | 202
CC(C)(C)c1cc(NC(=O)NCc2ccccc2Sc2ccc3nnc(-c4ccccc4OCCO)n3c2)n(-c2cccc(O)c2)n1 | µL/min/mg | > | 320

---

test: Dissociation constant, pKa of the compound; type: physicochemical
PROPERTY MEASURED: pKa

STRUCTURE SMILES STRING | PROPERTY MEASURED | MEASURED NUMBER
CC(C)(C)c1cc(NC(=O)NCc2ccccc2Sc2ccc3nnc(-c4ccccc4SCCO)n3c2)n(-c2ccc(O)c(Cl)c2)n1 | pKa | 7.45

---

Reported solubility is given for each of the following molecules.
experiment: Solubility in simulated lung fluid; type: physicochemical

STRUCTURE SMILES STRING | solubility / µg/mL
C[C@@H]1C[C@H]2[C@@H]3C[C@H](F)C4=CC(=O)C=C[C@]4(C)[C@@]3(F)[C@@H](O)C[C@]2(C)[C@@]1(O)C(=O)SCF | 0.5
CC(C)(C)c1cc(NC(=O)NCc2ccccc2Sc2ccc3nnc(-c4ccccc4O)n3c2)n(-c2cccc(OCCO)c2)n1 | 1

---

test: Intrinsic clearance in rat liver microsomes; type: ADME, Microsome; settings: read-out: CLH

STRUCTURE SMILES STRING | U | microsomal CLint
CSC(C)(C)c1cc(NC(=O)NCc2ccccc2Sc2ccc3nnc(C(C)C)n3c2)n(-c2cccc(O)c2)n1 | µL/min/mg | 200

---

experiment: Metabolic stability in human liver microsomes assessed as phase II glucuronidation in the presence of uridine diphosphate glucuronic acid and absence of NADPH; format: ADME, Microsome; settings: read-out: Stability
Reported microsomal CLint is given for each of the following compounds.

STRUCTURE SMILES STRING | U | microsomal CLint
CSCC(C)(C)c1cc(NC(=O)NCc2ccccc2Sc2ccc3nnc(-c4cc(O)ccc4Cl)n3c2)n(-c2cccc(OCCO)c2)n1 | µL/min/mg | 47
CC(C)(C)c1cc(NC(=O)NCc2ccccc2Sc2ccc3nnc(-c4cc(O)ccc4Cl)n3c2)n(-c2cccc(OCCO)c2)n1 | µL/min/mg | 53
CSc1ccccc1-c1nnc2ccc(Sc3ccccc3CNC(=O)Nc3cc(C(C)(C)C)nn3-c3cccc(O)c3)cn12 | µL/min/mg | 11
